Reported Emax by item:
- measurement_target: ligand binding domain of human FXR (Homo sapiens (Human))
- assay_notes: FXR ligand binding assay (LanthaScreen TR-FRET, SRC2-2 peptide recruitment)
- conditions_used: extent of activation relative to GW4064; read-out: % Efficacy
- Protocol: The affinity of FXR ligands for the ligand binding domain of FXR was determined using a commercially available human FXR ligand binding assay (LanthaScreen, Thermofisher Cat # PV4833). […] Test compounds are dissolved in DMSO and a 3-fold serial dilution series is generated, then further diluted into assay buffer. […] The reaction is incubated at room temperature for 1 hour, then the FRET signal is measured as the ratio of the 520 nm/495 nm emission following excitation at 340 nm. […]
Lab book: enter the figure in %, no units written.

Example results:
compound	measurement_type	u	experimental_result
O=C(O)c1cc(O[C@H]2CCOC2)c2nc(N3C(=O)[C@@H]4C[C@H]3C[C@H]4OCc3c(-c4c(Cl)cccc4Cl)noc3C3CC3)sc2c1 [Compound I-302]	Emax	%	106
O=C(NS(=O)(=O)C1CC1)c1ccc([N+]2([O-])C[C@@H]3C[C@H]2C[C@H]3OCc2c(-c3c(Cl)cccc3Cl)noc2C2CC2)cc1 (stereo partly shown) [Compound I-234]	Emax	%	146
O=C(O)c1ccc(N2C[C@H]3C[C@@H]2C[C@@H]3OCc2c(-c3c(Cl)cccc3Cl)noc2C2CC2)cc1 [Compound I-132]	Emax	%	98
O=C(O)c1nnc(N2C[C@@H]3C[C@H]2C[C@H]3OCc2c(-c3c(Cl)cccc3Cl)noc2C2CC2)s1 [Compound I-178]	Emax	%	86
O=C(O)c1cc(F)c2nc(N3C[C@@H]4C[C@H]3C[C@H]4OCc3c(-c4cccc(O)c4)noc3C3CC3)sc2c1 [Compound I-292]	Emax	%	120

Exercise: # get_value(readout='Emax', item= CC(C)c1cccc(F)c1-c1noc(C2CC2)c1CO[C@@H]1C[C@@H]2C[C@H]1C(=O)N2c1ccc(C(=O)O)cc1 [Compound I-310] )
Key: 155

Exercise: Now this one: O=S(=O)(O)c1ccc(N2C[C@@H]3C[C@H]2C[C@H]3OCc2c(-c3c(Cl)cccc3Cl)noc2C2CC2)cc1 [Compound I-144]
Key: 128

Exercise: Now this one: CCCS(=O)(=O)NC(=O)c1ccc(N2C[C@@H]3C[C@H]2C[C@H]3OCc2c(-c3c(Cl)cccc3Cl)noc2C2CC2)cc1 [Compound I-59]
Key: 176

Exercise: Now this one: O=C(NS(=O)(=O)C1CC1)c1ncc(N2C(=O)[C@@H]3C[C@H]2C[C@H]3OCc2c(-c3c(Cl)cccc3Cl)noc2C2CC2)cc1F [Compound I-355]
Key: 157

Exercise: Now this one: O=C(NS(=O)(=O)C1CCOCC1)c1ccc(N2C(=O)[C@@H]3C[C@H]2C[C@H]3OCc2c(-c3c(Cl)cccc3Cl)noc2C2CC2)cc1 [Compound I-338]
Key: 158

Exercise: Now this one: COc1cc(N2C[C@@H]3C[C@H]2C[C@H]3OCc2c(-c3c(Cl)cccc3Cl)noc2C2CC2)ccc1C(=O)O [Compound I-112]
Key: 116

Exercise: Now this one: C[C@H]1[C@H]2C[C@H](C[C@@H]2OCc2c(-c3c(Cl)cccc3Cl)noc2C2CC2)N1c1ccc(C(=O)NS(=O)(=O)C2CCOCC2)cn1 [Compound I-374]
Key: 48

Exercise: Now this one: CS(=O)(=O)CCNC(=O)c1ccc(N2C[C@@H]3C[C@H]2C[C@H]3OCc2c(-c3c(Cl)cccc3Cl)noc2C2CC2)cc1F [Compound I-170]
Key: 142

----------
- measurement_target: ligand binding domain of human FXR (Homo sapiens (Human))
- assay_notes: FXR ligand binding assay (LanthaScreen TR-FRET, SRC2-2 peptide recruitment)
- conditions_used: -log EC50, concentration required to produce 50% activation
measurement_type: pEC50
Friendly reminder that pEC50 comes from taking -log10 of the concentration in mol/L.

chemical_smiles	experimental_result
O=C(O)c1cc(F)c(N2C[C@@H]3C[C@H]2C[C@H]3OCc2c(-c3c(Cl)cccc3Cl)noc2C2CC2)c(F)c1	8.80

Exercise: # get_value(readout='pEC50', item= CCCS(=O)(=O)NC(=O)c1ccc(N2C[C@@H]3C[C@H]2C[C@H]3OCc2c(-c3c(Cl)cccc3Cl)noc2C2(F)CC2)nc1 )
Key: 8.00

Exercise: Now this one: O=C(NS(=O)(=O)C1CCOCC1)c1ccc(N2C[C@@H]3C[C@H]2C[C@H]3OCc2c(-c3c(Cl)cccc3Cl)noc2C2CC2)cc1
Key: 8.90

Exercise: Now this one: O=C(O)c1cc(F)c2nc(N3C[C@@H]4C[C@H]3C[C@H]4OCc3c(C4CCCCC4)noc3C3CC3)sc2c1
Key: 7.00

----------
- measurement_target: ligand binding domain of human FXR (Homo sapiens (Human))
- assay_notes: FXR ligand binding assay (LanthaScreen TR-FRET, SRC2-2 peptide recruitment)
- conditions_used: extent of activation relative to GW4064; read-out: % Efficacy
- Procedure: The affinity of FXR ligands for the ligand binding domain of FXR was determined using a commercially available human FXR ligand binding assay (LanthaScreen, Thermofisher Cat # PV4833). […] Test compounds are dissolved in DMSO and a 3-fold serial dilution series is generated, then further diluted into assay buffer. […] The reaction is incubated at room temperature for 1 hour, then the FRET signal is measured as the ratio of the 520 nm/495 nm emission following excitation at 340 nm. […]
measurement_type: Emax (%)
Lab book: enter the figure in %, no units written.

Example results:
compound	Emax (%)
O=C(O)c1cc(F)c(N2C[C@@H]3C[C@H]2C[C@H]3OCc2c(-c3c(Cl)cccc3Cl)noc2C2CC2)c(F)c1	158
O=C(O)c1ccc(N2C(=O)[C@@H]3C[C@H]2C[C@H]3OCc2c(-c3c(F)cccc3Cl)noc2C2CC2)cc1	171

Exercise: # get_value(readout='Emax', item= O=C(NS(=O)(=O)C1COC1)c1ccc(N2C[C@@H]3C[C@H]2C[C@H]3OCc2c(-c3c(Cl)cccc3Cl)noc2C2CC2)cc1 )
Key: 161

Exercise: Now this one: O=C(O)c1cc(O[C@@H]2CCOC2)c2nc(N3C[C@@H]4C[C@H]3C[C@H]4OCc3c(-c4c(Cl)cccc4Cl)noc3C3CC3)sc2c1
Key: 161

Exercise: Now this one: O=C(O)c1cc(OC(F)(F)F)c2nc(N3C[C@@H]4C[C@H]3C[C@H]4OCc3c(C4CCCCC4)noc3C3CC3)sc2c1
Key: 85

Exercise: Now this one: CC(C)c1cc(C(=O)O)cc2sc(N3C[C@@H]4C[C@H]3C[C@H]4OCc3c(-c4c(Cl)cccc4Cl)noc3C3CC3)nc12
Key: 128

Exercise: Now this one: Cc1cccc(Cl)c1-c1noc(C2CC2)c1CO[C@@H]1C[C@@H]2C[C@H]1CN2c1nc2c(C3CCOCC3)cc(C(=O)O)cc2s1
Key: 132

Exercise: Now this one: Cc1cccc(Cl)c1-c1noc(C2CC2)c1CO[C@@H]1C[C@@H]2C[C@H]1CN2c1nc2c(O[C@@H]3CCOC3)cc(C(=O)O)cc2s1
Key: 140

Exercise: Now this one: O=C(O)c1ccc(N2C[C@@H]3C[C@H]2C[C@H]3OCc2c(-c3c(F)cccc3Cl)noc2C2CC2)c(F)c1
Key: 145

Exercise: Now this one: O=C(O)c1ccc(N2C[C@@H]3C[C@H]2C[C@H]3OCc2c(-c3ccccc3C(F)(F)F)noc2C2CC2)cc1
Key: 188

Exercise: Now this one: Cc1cccc(Cl)c1-c1noc(C2CC2)c1CO[C@@H]1C[C@@H]2C[C@H]1CN2c1ccc(CCC(=O)O)cc1F
Key: 144

Exercise: Now this one: O=C(NS(=O)(=O)C1CCOC1)c1ccc(N2C(=O)[C@@H]3C[C@H]2C[C@H]3OCc2c(-c3c(Cl)cccc3Cl)noc2C2CC2)cc1 (stereo partly drawn)
Key: 182

----------
- measurement_target: ligand binding domain of human FXR (Homo sapiens (Human), UniProt Q96RI1)
- Sequence (Q96RI1 262-486): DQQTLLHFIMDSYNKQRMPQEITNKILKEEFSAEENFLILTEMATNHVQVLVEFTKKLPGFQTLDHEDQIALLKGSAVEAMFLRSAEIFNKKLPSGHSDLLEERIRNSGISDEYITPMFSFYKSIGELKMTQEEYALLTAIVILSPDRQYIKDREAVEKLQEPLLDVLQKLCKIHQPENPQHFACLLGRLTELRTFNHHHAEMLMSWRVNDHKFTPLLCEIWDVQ
- assay_notes: FXR ligand binding assay (LanthaScreen TR-FRET, SRC2-2 peptide recruitment)
- conditions_used: extent of activation relative to GW4064; read-out: % Efficacy
measurement_type: Emax
Numeric answer plus unit only.

Example results:
compound	Emax
O=C(O)c1cc(F)c2nc(N3C[C@@H]4C[C@H]3C[C@H]4OC(=O)c3c(C45CCC(CC4)CC5)noc3C3CC3)sc2c1	15%
O=C(O)c1ccc(N2C[C@@H]3C[C@H]2C[C@H]3OCc2c(-c3ccccc3C(F)(F)F)noc2C2CC2)c(F)c1	174%
O=C(O)c1cc(OCC(F)(F)F)c2nc(N3C[C@@H]4C[C@H]3C[C@H]4OCc3c(-c4c(Cl)cccc4Cl)noc3C3CC3)sc2c1	162%
O=C(NS(=O)(=O)C1CC1)c1ccc(N2C[C@@H]3C[C@H]2C[C@H]3OCc2c(-c3c(Cl)cccc3Cl)noc2C2(F)CC2)c(F)c1	167%

Exercise: # get_value(readout='Emax', item= Cc1cccc(Cl)c1-c1noc(C2CC2)c1CO[C@@H]1C[C@@H]2C[C@H]1CN2c1ccc(CCC(=O)NS(=O)(=O)C2CCOCC2)cc1F )
Key: 182%

Exercise: Now this one: Cc1cccc(Cl)c1-c1noc(C2CC2)c1CO[C@@H]1C[C@@H]2C[C@H]1CN2c1ccc(C(=O)O)cc1F
Key: 126%

Exercise: Now this one: O=C(NCCS(=O)(=O)O)c1ccc(N2C[C@@H]3C[C@H]2C[C@H]3OCc2c(-c3c(Cl)cccc3Cl)noc2C2CC2)cc1
Key: 154%

Exercise: Now this one: O=C(NS(=O)(=O)CC1CCOC1)c1ccc(N2C(=O)[C@@H]3C[C@H]2C[C@H]3OCc2c(-c3c(Cl)cccc3Cl)noc2C2CC2)cc1 (stereo partly shown)
Key: 164%

Exercise: Now this one: CO[C@@H]1CCC[C@H]1S(=O)(=O)NC(=O)c1ncc(N2C(=O)[C@@H]3C[C@H]2C[C@H]3OCc2c(-c3c(Cl)cccc3Cl)noc2C2CC2)cc1F
Key: 171%

Exercise: Now this one: O=C(O)CCCc1ccc(N2C[C@@H]3C[C@H]2C[C@H]3OCc2c(-c3c(Cl)cccc3Cl)noc2C2CC2)c(F)c1
Key: 134%

Exercise: Now this one: Fc1cc(-c2nn[nH]n2)ccc1N1C[C@@H]2C[C@H]1C[C@H]2OCc1c(-c2c(Cl)cccc2Cl)noc1C1CC1
Key: 156%

Exercise: Now this one: Fc1cc(-c2nn[nH]n2)cc2sc(N3C[C@@H]4C[C@H]3C[C@H]4OCc3c(-c4c(Cl)cccc4Cl)noc3C3CC3)nc12
Key: 137%

Exercise: Now this one: O=C(NS(=O)(=O)C1CC1)c1ccc(N2C[C@@H]3C[C@H]2C[C@H]3OCc2c(C3CCC4(CC3)CC4)noc2C2CC2)cc1
Key: 134%
